Tested on: Streptococcus pneumonia RCMB 010010
Assay: Well diffusion assay, Streptococcus pneumonia
Format: cell-based
Settings: Streptococcus pneumonia RCMB 010010, well diffusion
Residues, ends and D or L forms follow the SMILES beside them. *: point of attachment. X1 = CC1(C(=O)*)CCC2(C)CCC3(C)C(=CC(=O)C4C5(C)CCC(O)C(C)(C)C5CCC43C)C2C1
property-measured: Diameter of Inhibition Zone (mm)
Give your result in mm as a bare value.

molecule	assay-value
COC(=O)C(CC(C)C)NC(=O)CNC(=O)CNC(=O)C1(C)CCC2(C)CCC3(C)C(=CC(=O)C4C5(C)CCC(OC(=O)CNC(=O)CNC(=O)OC(C)(C)C)C(C)(C)C5CCC43C)C2C1 (stereo not shown)	12
CNC(C)C1CCC(N)C(OC2C(N)CC(N)C(OC3OCC(C)(O)C(NC)C3O)C2O)O1 (stereo not shown) [GM, gentamicin, reference compound]	27.2
CC1(C(=O)NCC(=O)NCC(=O)O)CCC2(C)CCC3(C)C(=CC(=O)C4C5(C)CCC(O)C(C)(C)C5CCC43C)C2C1 (stereo not shown)	17
CCOC(=O)CNC(=O)CNC(=O)C1(C)CCC2(C)CCC3(C)C(=CC(=O)C4C5(C)CCC(O)C(C)(C)C5CCC43C)C2C1 (stereo not shown)	15
CCOC(=O)CNC(=O)CNC(=O)CNC(=O)CNC(=O)C1(C)CCC2(C)CCC3(C)C(=CC(=O)C4C5(C)CCC(O)C(C)(C)C5CCC43C)C2C1 (stereo not shown) [Compound 4] (X1-GGGG-OEt)	11
CCCC(NC(=O)C(CC(C)C)NC(=O)OC(C)(C)C)C(=O)OC1CCC2(C)C(CCC3(C)C2C(=O)C=C2C4CC(C)(C(=O)NCC(=O)NCC(=O)OCC)CCC4(C)CCC23C)C1(C)C (stereo not shown)	12

Which measured Diameter of Inhibition Zone (mm) value corresponds to CC1(C(=O)NCC(=O)NCC(=O)NCC(=O)NCC(=O)O)CCC2(C)CCC3(C)C(=CC(=O)C4C5(C)CCC(O)C(C)(C)C5CCC43C)C2C1 (stereo not shown) [Compound 5] (X1-GGGG-OH) ? 16
